Run Description: Primary qHTS for inhibitors of nuclear receptor binding SET domain protein 2 (NSD2) in an RCH-ACV wild type WT cells (2C) (AID 1645877); note: nearly all actives have a fitted effect of over 70% in size
Setup Conditions: RCH-ACV (leukaemia line) NSD2 WT (2C) viability, CellTiter-Glo, 72 h; series mostly up to 44.9 µM
Inconclusive results are not listed. The source made the active and inactive calls. Calls come from the whole dose curve; as a rule, active = well fitted inhibition curve with a large enough effect; inconclusive = small, poorly fitted or top-dose-only effect; inactive = no such curve, though single readings can be large or run the other way.
Your reply should match one of these outcome classes. active, inactive

A selection of reference data follows.
Sample Smiles: NCc1c[nH]c(=S)n1[C@H]1CCc2c(F)cc(F)cc2C1
Group: inactive
--
Sample Smiles: CCC[C@H](Nc1nc(-c2ccc(NC(=O)NCC)c(OC)c2)ncc1C)c1cccnc1
Group: active
--
Sample Smiles: O=C(Nc1cccc2c(=O)cc(-c3nn[nH]n3)oc12)c1ccc(OCCCCc2ccccc2)cc1
Group: inactive
--
Sample Smiles: NC(=O)c1ccc(N(C(N)=O)c2c(F)cccc2F)nc1-c1ccc(F)cc1F
Group: inactive
--
Sample Smiles: Cc1ccc2c(c1)C(=O)[C@]1(O)CCN(c3ccccc3)C1=N2
Group: active

Kindly consider the entry below.
Problem: Check the results log: what was the call for COC(=O)[C@H](c1ccccc1Cl)N1CCc2sccc2C1 ?
Solution: inactive

====

Run Description: qHTS Screen of the MIPE 4.0 Collection Against Ewings Sarcoma (TC32) (AID 1259256); note: nearly all actives have a fitted effect of over 45% in size
Setup Conditions: TC32 Ewing sarcoma viability, CellTiter-Glo, 48 h; series mostly up to 45.8 µM
Results filed as inconclusive are left out. Activity calls are given as the source filed them. Calls come from the whole dose curve; as a rule, active = well fitted inhibition curve with a large enough effect; inconclusive = small, poorly fitted or top-dose-only effect; inactive = no such curve, though single readings can be large or run the other way.
Your reply should match one of these outcome classes. true = active, false = inactive

A selection of reference data follows.
Sample Smiles: O=C(NCCCCN1CCOCC1)c1cc2ccccc2o1
Group: false
--
Sample Smiles: CCC(=O)N1CCN(c2ccc(-n3c(=O)ccc4cnc5ccc(-c6cnc7ccccc7c6)cc5c43)cc2C(F)(F)F)CC1
Group: true
--
Sample Smiles: COc1cc2ncnc(Nc3cc(Br)c(O)c(Br)c3)c2cc1OC
Group: true
--
Sample Smiles: C[C@@H](NC(=O)c1ncnc(N)c1Cl)c1ncc(C(=O)Nc2cc(C(F)(F)F)c(Cl)cn2)s1
Group: true

Problem: Check the results log: what was the call for O=C(Nc1cccc2c(=O)cc(-c3nn[nH]n3)oc12)c1ccc(OCCCCc2ccccc2)cc1 ?
Solution: true

====

Test system: Zika virus NS2B-NS3 protease
Run Description: Primary screen GU AMC qHTS for Zika virus inhibitors (AID 1347154); note: nearly all actives have a fitted effect of over 70% in size
Setup Conditions: Zika NS2B-NS3 unlinked protease, AMC fluorogenic substrate; series mostly up to 54.1 µM
Records with an inconclusive call do not appear. Active and inactive are the calls of the source. Calls follow the shape of the dose curve; as a rule, active = well fitted inhibition curve with a large enough effect; inconclusive = small, poorly fitted or top-dose-only effect; inactive = flat fitted curve, though single readings scatter.
Your reply should match one of these outcome classes. active, inactive

A selection of reference data follows.
Compound: CNc1nc(Nc2ccc(C(=O)N3CCOCC3)cc2OC)ncc1Cl
Group: inactive
--
Compound: N=C1SC(=Cc2ccc(-c3ccc4c(c3)C(=O)NC4=O)o2)C(=O)N1c1ccc(Br)cc1
Group: inactive
--
Compound: COC(=O)N1CCN(Cc2cccc(NC(=O)Nc3ccc(C)nc3)c2F)CC1
Group: inactive
--
Compound: COc1cc2ncnc(Nc3cc(Br)c(O)c(Br)c3)c2cc1OC
Group: inactive
--
Compound: Cc1cccc(Nc2nc(N[C@@H]3CCCC[C@H]3N)ncc2C(N)=O)c1
Group: inactive

Kindly consider the entry below.
Problem: Check the results log: what was the call for CN1c2ccccc2C(=O)N2CCc3c([nH]c4ccccc34)C21 (stereo not drawn) ?
Solution: inactive
